- assayed_system: P-gp (ABCB1) (Homo sapiens, UniProt P08183)
- Sequence (P08183 whole entry): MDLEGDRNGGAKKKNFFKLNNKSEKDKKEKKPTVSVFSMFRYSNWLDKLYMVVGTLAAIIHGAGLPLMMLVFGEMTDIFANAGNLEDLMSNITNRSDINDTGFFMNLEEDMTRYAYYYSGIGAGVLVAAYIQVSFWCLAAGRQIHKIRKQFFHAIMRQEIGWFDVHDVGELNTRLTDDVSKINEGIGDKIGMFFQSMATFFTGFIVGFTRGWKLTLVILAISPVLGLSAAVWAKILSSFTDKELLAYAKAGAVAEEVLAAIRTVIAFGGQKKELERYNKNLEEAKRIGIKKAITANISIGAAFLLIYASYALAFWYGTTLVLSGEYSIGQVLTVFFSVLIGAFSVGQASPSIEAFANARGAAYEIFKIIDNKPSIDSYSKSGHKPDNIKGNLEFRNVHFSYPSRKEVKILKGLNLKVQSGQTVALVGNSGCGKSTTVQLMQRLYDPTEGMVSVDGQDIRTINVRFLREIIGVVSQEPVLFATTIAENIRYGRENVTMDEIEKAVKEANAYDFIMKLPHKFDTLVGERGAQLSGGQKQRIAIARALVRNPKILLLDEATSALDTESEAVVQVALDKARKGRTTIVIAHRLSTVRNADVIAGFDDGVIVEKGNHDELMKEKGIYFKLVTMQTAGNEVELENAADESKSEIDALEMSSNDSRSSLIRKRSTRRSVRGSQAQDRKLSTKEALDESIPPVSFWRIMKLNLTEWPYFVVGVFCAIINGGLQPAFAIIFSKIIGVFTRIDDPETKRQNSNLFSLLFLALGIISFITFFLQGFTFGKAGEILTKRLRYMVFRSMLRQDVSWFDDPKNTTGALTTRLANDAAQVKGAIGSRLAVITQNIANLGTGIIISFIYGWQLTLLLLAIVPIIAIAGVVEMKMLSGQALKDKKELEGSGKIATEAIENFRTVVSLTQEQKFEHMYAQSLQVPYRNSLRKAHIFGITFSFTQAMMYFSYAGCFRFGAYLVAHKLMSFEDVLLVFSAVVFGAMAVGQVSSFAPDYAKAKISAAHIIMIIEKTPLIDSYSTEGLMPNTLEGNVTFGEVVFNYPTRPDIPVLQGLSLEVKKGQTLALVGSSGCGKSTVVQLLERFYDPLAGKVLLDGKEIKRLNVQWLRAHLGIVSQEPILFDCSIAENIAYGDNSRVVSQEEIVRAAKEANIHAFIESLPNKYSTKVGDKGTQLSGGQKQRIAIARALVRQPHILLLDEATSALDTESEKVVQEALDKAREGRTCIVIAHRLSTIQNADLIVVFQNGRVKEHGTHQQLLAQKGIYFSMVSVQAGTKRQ
- assay_protocol: Inhibition of p-gp in doxorubicin-resistant human Saos2 cells assessed as potentiation of doxorubicin-induced cytotoxicity by measuring cell survival at 1 ug/mL pretreated for 30 mins followed by 0.5 ug/mL doxorubicin addition measured after 72 hrs by MTT assay relative to doxorubicin-treated cell
- Type: cell-based, SAOS-2
- condition_set: probe doxorubicin, read-out: Survival
test_readout: viability at 72 h, 1 ug/mL (%)
Enter your answer as a number in %; do not include the unit.

-- ask Value wanted: viability at 72 h, 1 ug/mL (P-gp (ABCB1) (Homo sapiens, UniProt P08183)) of entry CC=C1CN(C)C2Cc3c([nH]c4ccccc34)C(c3cc4[nH]c5c(c4cc3OC)CCN3CC4CC(CC)C3C5(C(=O)OC)C4)CC1C2C(=O)OC (stereo unspecified)
-- reply 50
